Assay: Binding affinity to Cu2+ using CuCl2 after 5 mins by spectrophotometry
recorded-endpoint: logKa
Returns: the value as a bare number; no unit string appended.

According to the records, this compound Oc1ccc(/N=C/c2c(O)ccc3ccccc23)c(O)c1 displays logKa of 14.3

The value of logKa measured for the compound Oc1ccc(CNc2ccccc2O)cc1O turned out to be 12.6

Sample Oc1ccc(/C=C/c2cc(O)cc(O)c2)cc1 ; logKa observed: 6.7

Form field logKa, entry Oc1ccccc1/N=C/c1c(O)ccc2ccccc12 : 14

Documented logKa of Oc1cccc(CNc2ccccc2O)c1 : 13.1

Entry Oc1c(I)cc(Cl)c2cccnc12 — recorded logKa = 15.6

Consider Oc1ccc(CNc2ccccc2O)cc1 . Its measured logKa is 12.8
